tested on: HCT-15 colon; test: NCI-60 one-dose screen, 48 h (100 = growth as untreated, 0 = no growth, -100 = all killed); details: 10 µM unless noted
Compounds without any hit were thinned out: in the full panel of roughly 83,000, 20% have a hit.
Kindly state growth for each of the entries shown.
The figure you give is taken to be in %; do not add the unit.

Under HCT-15 colon: growth value of C#CCOc1ccc2nc(CCl)c(Cl)c(Nc3cccc(C(F)(F)F)c3)c2c1 ? 36.3

Any idea what growth came out for CN(C)CCCNC(=O)c1cncnc1Nc1ccc2c(ccn2Cc2cccc(F)c2)c1 on HCT-15 colon? 63.2

Please provide the recorded growth for O=c1ccc2ccc(OCCN3CCCCC3)cc2o1 , tested on HCT-15 colon. 108

Notebook: pull reported growth for HCT-15 colon, entry COc1ccc(C2CC(c3ccccc3)=NN2C(=O)c2cc(OC)c(OC)c(OC)c2)cc1O (centres undefined) 16.2

API: value(readout= growth, system= HCT-15 colon, query= CNC(=O)c1cc(Oc2ccc3c(c2)sc2nc(-c4ccc(Cl)c(C(F)(F)F)c4)cn23)ccn1 ) 65

Query for HCT-15 colon: what growth does the record show for C=CN(C(=O)N1CCN(c2cc3c(cc2F)c(=O)c(C(=O)O)cn3C2CC2)CC1)c1nc(-c2ccccc2)cs1 ? 102

# query: growth | item C=C1CC[C@@H]2C(C)(C)[C@H](O)CC[C@@]2(C)[C@@H]1COc1ccc2ccc(=O)oc2c1 | system: HCT-15 colon 56.2

Hi! What's the reported growth for CN(C)Cc1cc(C(C)(C)C)cc(Br)c1O on HCT-15 colon? 95.6

So what growth did O=C(OCc1ccc2c(Cl)cc(Cl)c(O)c2n1)N1CCN(C(=O)c2cc3ccccc3[nH]2)CC1 get with HCT-15 colon? 22.2

====

test system: T-47D breast; assay: NCI-60 one-dose screen, 48 h; details: 10 µM unless noted
This is part of a sample that, as a whole, favours compounds with a hit. Of some 83,000 tested, about 20% had one in any assay. Calls of active or inactive are those of the source. How the source made its calls: active means growth percent below 10; inactive means the rest.
Hello, when you answer, please use one of the following outcomes: yes (active), no (inactive)

Record lookup: outcome of this test for CC(C)(C)OC(=O)CN1CCc2c(sc3ncnc(N4CCN(c5ccc(F)cc5)CC4)c23)C1 ? no

Recorded call for COc1ccc(C2[C@@H](c3ccccc3)C(=O)N2c2cc(OC)c(OC)c(OC)c2)cc1F (stereo not given in full) ? no

Query: recorded result category for COc1cc(-c2nccc3[nH]c(-c4cccc5[nH]ccc45)nc23)cc(OC)c1OC in this test no

Would you mind telling me which call this test gave CN1C(=O)/C(=C/c2ccc(C(=O)Nc3ncc(Cc4cc(Cl)ccc4Cl)s3)cc2)SC1=S ? no

Hi team, can someone confirm the assay call for O=CN1N=C(c2cccc(Nc3ccnc4cc(Cl)ccc34)c2)CC1c1ccc(Cl)cc1 (stereo not given) ? no

For this compound, state the assay outcome: COC(=O)c1ccc2cc(OC)c(OC)cc2c1 no

Please let me know the test result on file for Cc1ccc(C)c2c1sc1nc(N3CCOCC3)c(C#N)c(=O)n12 . no

For this compound, state the assay outcome: COc1ccc(/C=C/C(c2cc(OC)c(OC)c(OC)c2)n2cncn2)cc1O (stereo not given) no

Hello, I am checking results. What call was entered for CS(=O)(=O)Nc1cc(-c2ccc3ncnc(Nc4ccc5c(cnn5Cc5ccccc5F)c4)c3c2)cnc1Cl ? yes

Query: recorded result category for O=C1CCC(C(=O)N/N=C/c2cc(F)ccc2F)N1 (stereo not given) in this test no

Assay outcome for c1ccc(Nc2nc3c(s2)CCc2c[nH]cc2-3)nc1 : what was it? no

Could you kindly confirm the outcome this assay logged for O=c1cc(CNc2cc(F)cc(F)c2)c2ccc(I)cc2[nH]1 ? no

I'd appreciate the recorded outcome for Cc1cc(O)cc(-c2nn(C)cc2-c2cc(N3CCOCC3)nc(-c3cccnc3)n2)c1 from this test. no

Called result for Brc1ccc(Nc2nc(Nc3cnc4ccccc4c3)c3[nH]cnc3n2)cc1 no

Give the logged outcome of this assay for the following compound: COc1ccc2c(O)c(/C=C3\N=Nc4ncccc43)oc2c1C[C@@H]1CCNC[C@H]1F no

Record lookup: outcome of this test for C=C1C(=O)O[C@H]2[C@H]1CC/C(COC(=O)NCc1ccc(Cn3c(=O)sn(-c4ccc(I)cc4)c3=O)cc1)=C\CC[C@@]1(C)O[C@@H]21 ? no

Assay outcome for Cc1ccc2c(c1)=C/C(=C\c1cc(-c3ccccc3)[nH]c1O)C(=O)N=2 : what was it? no

Which outcome was assigned to Cc1nn(-c2ccc([N+](=O)[O-])cc2)c2ncnc(N/N=C/c3ccccc3O)c12 in this test? no

Per the records of this test, what outcome belongs to CNC(=O)Nc1ccc(-c2ccc3ncnc(Nc4cccc(Cl)c4)c3c2)cc1 ? yes

// return assay outcome for CCOC(=O)c1cn2ncnc(Oc3ccc(NC(=O)NC4CC4)c(Cl)c3)c2c1C no

====

Can you tell me growth for the items I'm about to list?
test system: SK-MEL-28 melanoma; test: NCI-60 one-dose screen, 48 h (100 = growth as untreated, 0 = no growth, -100 = all killed); details: 10 µM unless noted
Compounds without any hit were thinned out: in the full panel of roughly 83,000, 20% have a hit.
State the answer as a number, implicitly in %.

// map CCOC(=O)c1cnn(CC(C)O)c1NC(=O)NCc1ccccc1C(F)(F)F (centres undefined) to recorded growth (system: SK-MEL-28 melanoma) 103

Record lookup: for SK-MEL-28 melanoma, what growth belongs to Nc1c(C(=O)Nc2cccc3ncccc23)sc2nc3c(cc12)CN(Cc1ccccc1)CC3 ? 81.7

Hi! What's the reported growth for CN(C)CCn1c(=O)c2ccccc2n2nc3ccccc3c12 on SK-MEL-28 melanoma? 116

What reported growth corresponds to O=C(NCCNC(c1ccccc1)C(NCCNC(=O)c1ccccc1)c1ccccc1)c1ccccc1 (centres undefined) on SK-MEL-28 melanoma? 103

Which measured growth belongs to Nc1c(Cl)cc(/C=C2\C=Cc3ccccc32)cc1Cl , tested on SK-MEL-28 melanoma? 114

What growth appears in the records for this molecule with SK-MEL-28 melanoma? N#Cc1c(-c2cccc(Cl)c2)cc(-c2cccnc2)[nH]c1=O 64.4

Lab note: need growth with SK-MEL-28 melanoma for entry COC1C(O)CC(OC2CC(OC3CC(O[C@@H]4C(=O)c5c(cc6cc(OC7CC(OC8CC(O)C(O)C(C)O8)C(O)C(C)O7)c(C)c(O)c6c5O)CC4[C@H](OC)C(=O)C(C)=O)OC(C)C3O)OC(C)C2O)OC1C (some centres undefined) , please look it up. -20.6

State its growth on SK-MEL-28 melanoma: COc1ccc(C2[C@@H](c3ccccc3)C(=O)N2c2cc(OC)c(OC)c(OC)c2)cc1F (some centres undefined) 63.6

Query the reported growth for SK-MEL-28 melanoma; item: O=c1ccc2ccc(OCCN3CCCCC3)cc2o1 102

What measured growth is associated with CN1c2ccccc2S(=O)(=O)n2c(SCC(=O)Nc3nc4ccc(F)cc4s3)nnc21 on SK-MEL-28 melanoma? 127

Field: growth (SK-MEL-28 melanoma). Entry: CC(=O)N1N=C(c2ccc(Nc3nc(Nc4ccc(F)cc4)nc(Nc4ccc(F)cc4)n3)cc2)CC1c1ccc(N(C)C)cc1 (centres undefined) 64.2

Provide the documented growth with SK-MEL-28 melanoma as the system for O=S(Nc1ccccc1)c1ccc(Cl)cc1 (centres undefined) 107

What reported growth corresponds to O=C1OCC2=C1C(c1ccccc1)c1cc3c(cc1N2CCO)OCCO3 (centres undefined) on SK-MEL-28 melanoma? 32.6

What measured growth is associated with CCCCn1c(NC(C)=O)c(S(=O)(=O)c2ccccc2)c2nc3ccccc3nc21 on SK-MEL-28 melanoma? 122

Checklist item: growth tested on SK-MEL-28 melanoma, entry CCCC(=O)NC(c1ccc2c(c1)OCO2)c1cc(Cl)c2cccnc2c1O (centres undefined) , value? 46.1

GET /values?readout=growth&system=SK-MEL-28 melanoma&item= CS(=O)(=O)Nc1cc(-c2ccc3ncnc(Nc4ccc5c(cnn5Cc5ccncc5)c4)c3c2)cnc1Cl 32.5

Please provide the recorded growth for CSc1nc(-c2ccco2)c(C#N)c(=O)n1C , tested on SK-MEL-28 melanoma. 109

Item CCOc1ncc([N+](=O)[O-])c(OCC)n1 with SK-MEL-28 melanoma - growth? 105

Given the entry CCOC(=O)c1c(C)nc2ccccc2c1/C=C/c1ccc(F)cc1 , what growth was observed with SK-MEL-28 melanoma? 101

Form field: growth recorded for C=CC(CC(c1ccccc1)(c1ccccc1)c1ccccc1)N(CC)CC (centres undefined) with SK-MEL-28 melanoma (enter value) 61.6

Enter reported growth observed with SK-MEL-28 melanoma for COc1ccc(C2CC(c3ccccc3)=NN2C(=O)c2cc(OC)c(OC)c(OC)c2)cc1O (centres undefined) 64.9

Give recorded growth with SK-MEL-28 melanoma for the following molecule: CCCCCCCCn1ccc2cc(NC(=O)CN3CCN(c4cc(C)nc(Cl)n4)CC3)ccc21 90.9

So what growth did Cc1cccc(-c2nc(C(C)C)sc2-c2ccnc(NCCCNS(=O)(=O)c3ccc(Cl)cc3)c2)c1 get with SK-MEL-28 melanoma? 90.6

Query growth on SK-MEL-28 melanoma for CN1CCN(Cc2ccc(NC(=O)c3cncc(C#Cc4cnc(N)cc4C#N)c3)cc2C(F)(F)F)CC1 0.973

I'm curious: which growth was measured for C/C(=C(\c1ccc(OCCN2CCCCCC2)cc1)c1ccc(OC(=O)c2ccccc2)cc1)c1ccc(Cl)cc1 tested on SK-MEL-28 melanoma? 51.7

Hi! What's the reported growth for COc1ccc(-c2cc(-c3cc(OC)ccc3OC)nc(SCC(C)=O)c2C#N)cc1 on SK-MEL-28 melanoma? 68

Request - read-out growth | tested on SK-MEL-28 melanoma | molecule CC(C)(C)CC(C)(C)Nc1c(-c2c(O)c3ccccc3oc2=O)nc2sc3ccccc3n12 58.2

So what growth did COC(=O)c1ccc2c(c1)c1c(C)c3cnccc3c(C)c1n2C get with SK-MEL-28 melanoma? -54.5

growth of N#Cc1c(-c2ccc(Br)cc2)nc2c(N=Nc3ccc(S(N)(=O)=O)cc3)c(N)nn2c1N on SK-MEL-28 melanoma? 63.2

Could you share what growth was measured for Cn1cc(-c2nonc2-c2c[nH]c3ccccc23)c2cc(Br)ccc21 , tested on SK-MEL-28 melanoma? 60.8

Requested read-out growth, target or system SK-MEL-28 melanoma, entry Nc1cc(-c2ccc(Cl)cc2)nn1-c1nnc(/C=C/c2ccco2)c(=O)[nH]1 66.4

growth of CC1=C(Cl)C(=O)c2cc(C)ccc2C1=O on SK-MEL-28 melanoma? 94.9

Can you look up growth on SK-MEL-28 melanoma for CC(=O)O[C@H]1CC[C@]2(C)[C@H]3CC=C4[C@@H]5CC(C)(C)CC[C@]5(C(=O)N5CCN(CCC#N)CC5)CC[C@@]4(C)[C@]3(C)CC[C@H]2C1(C)C ? 52.2

Lab request: please report growth under test system SK-MEL-28 melanoma for Cc1ccc(OCCOCCOCCOc2ccc(C)n(O)c2=S)c(=S)n1O 48.8

I'm curious: which growth was measured for CCCC(O)Cn1ncc(C(=O)OCC)c1NC(=O)NCc1cccc(C(F)(F)F)c1 (centres undefined) tested on SK-MEL-28 melanoma? 105

Item: COc1ccc(C2C3=C(COC3=O)N(CCO)c3cc4c(cc32)OCO4)cc1OC (centres undefined) Test system: SK-MEL-28 melanoma Read-out: growth Value: ? 89

Quick check: growth on SK-MEL-28 melanoma, item O=c1cc(CP(=O)(O)O)c2cc(O)c(-c3ccccc3)cc2o1 ? 104

Form: Entry = COc1cc(-c2ccc[nH]2)[nH]c1/C=C1\N=C(C)C(CC(=O)OCC(C)(C)C)=C1C | System = SK-MEL-28 melanoma | growth = ____ -78.2

Entry COc1ccc(-c2cc(C(=O)N3N=C(c4ccc(N)cc4)CC3c3ccc(Cl)cc3)c3ccccc3n2)cc1 (centres undefined) , system SK-MEL-28 melanoma: what growth was measured? 63.4
